The reader will find Ki measurements below, all made with h5-HT2C (Homo sapiens, UniProt P28335).
Sequence (P28335 33-458): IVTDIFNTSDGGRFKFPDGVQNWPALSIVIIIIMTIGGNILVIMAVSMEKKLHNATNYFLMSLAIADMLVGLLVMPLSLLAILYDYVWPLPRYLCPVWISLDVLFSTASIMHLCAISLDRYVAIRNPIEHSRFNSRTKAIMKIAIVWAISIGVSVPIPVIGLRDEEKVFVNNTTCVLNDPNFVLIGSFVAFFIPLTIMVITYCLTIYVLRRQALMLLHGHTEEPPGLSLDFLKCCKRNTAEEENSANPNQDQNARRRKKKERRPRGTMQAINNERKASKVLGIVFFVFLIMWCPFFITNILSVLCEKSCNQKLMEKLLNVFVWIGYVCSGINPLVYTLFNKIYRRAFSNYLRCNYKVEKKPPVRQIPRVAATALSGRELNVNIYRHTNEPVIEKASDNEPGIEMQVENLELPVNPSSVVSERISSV

Consider the following illustrative entries.
[
  {
    "compound": "CCCc1cc(OC)c(CC(C)N)cc1OC.Cl (stereo not shown)",
    "experimental-system": "h5-HT2C (Homo sapiens, UniProt P28335)",
    "experimental-endpoint": "Ki",
    "result": "0.047 µM"
  },
  {
    "compound": "COc1ccc(OC)c(CC(C)N)c1.Cl (stereo not shown) [2,5-DMA, 2,5-Dimethoxyamphetamine hydrochloride]",
    "experimental-system": "h5-HT2C (Homo sapiens, UniProt P28335)",
    "experimental-endpoint": "Ki",
    "result": "> 5 µM"
  },
  {
    "compound": "CCCCCc1cc(OC)c(CC(C)N)cc1OC (stereo not shown)",
    "experimental-system": "h5-HT2C (Homo sapiens, UniProt P28335)",
    "experimental-endpoint": "Ki",
    "result": "0.075 µM"
  }
]

Turning to the following compound.
Could you share which Ki value was measured for CCCCc1cc(OC)c(CC(C)N)cc1OC (stereo not shown) ? 0.06 µM

---

biological target: UniProt Q96RJ0; assay: Functional activity at human TAAR1 (cAMP)
Sequence (Q96RJ0 whole entry): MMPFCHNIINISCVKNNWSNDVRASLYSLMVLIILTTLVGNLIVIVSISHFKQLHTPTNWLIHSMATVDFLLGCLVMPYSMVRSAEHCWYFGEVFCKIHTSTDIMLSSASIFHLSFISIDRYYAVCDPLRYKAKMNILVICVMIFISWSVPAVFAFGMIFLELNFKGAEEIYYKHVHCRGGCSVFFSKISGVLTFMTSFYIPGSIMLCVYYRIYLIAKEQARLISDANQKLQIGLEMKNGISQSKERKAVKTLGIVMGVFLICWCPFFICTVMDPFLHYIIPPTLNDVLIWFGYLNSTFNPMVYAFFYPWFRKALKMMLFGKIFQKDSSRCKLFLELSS
Catalogue of pEC50 values
Reminder that pEC50 means the negative base-10 logarithm of the concentration expressed in mol/L.

Known pEC50 results, listed for orientation:
[
  {
    "compound": "CCCCc1cc(OC)c(CC(C)N)cc1OC (centres unmarked) [DOBU, 4-butyl-2,5-dimethoxyamphetamine]",
    "recorded-number": 4.98
  },
  {
    "compound": "CCCc1cc(OC)c(CC(C)N)cc1OC.Cl (centres unmarked) [DOPR]",
    "recorded-number": 4.99
  }
]

Lab note: next compound to report on.
# get_value(readout='pEC50', item= CCCCCc1cc(OC)c(CC(C)N)cc1OC (centres unmarked) [DOAM, 4-amyl-2,5-dimethoxyamphetamine] ) 4.66

---

Parameter Locomotor activity (distance traveled): see the listing below.
tested on: C57BL/6 J mice; experiment: Locomotor activity in mice (dose-response sessions); format: in vivo, mouse; details: 1 mg/kg s.c.; 30-min session; mean ± SEM

Some solved cases for reference:
[
  {
    "compound": "CCCCc1cc(OC)c(CC(C)N)cc1OC (centres unmarked)",
    "Locomotor activity (distance traveled)": "3,030 ± 217 cm"
  },
  {
    "compound": "COc1ccc(OC)c(CC(C)N)c1.Cl (centres unmarked) [2,5-DMA, 2,5-Dimethoxyamphetamine hydrochloride]",
    "Locomotor activity (distance traveled)": "2,630 ± 184 cm"
  },
  {
    "compound": "CCCCCc1cc(OC)c(CC(C)N)cc1OC (centres unmarked)",
    "Locomotor activity (distance traveled)": "2,421 ± 129 cm"
  }
]

Please look up its Locomotor activity (distance traveled): COc1cc(CC(C)N)c(OC)cc1C (centres unmarked) 4,272 ± 215 cm

State the recorded Locomotor activity (distance traveled) for this entry: CCCc1cc(OC)c(CC(C)N)cc1OC.Cl (centres unmarked) 3,500 ± 278 cm

---

molecular target: h5-HT2A (Homo sapiens, UniProt P28223); assay: Arachidonic acid release (Gαi/o,12/13 marker), h5-HT2A; type: cell-based; set-up: expressed in transfected cells; host or cells: HEK 293 cells (membrane preparation)
Sequence (P28223 whole entry, looked up): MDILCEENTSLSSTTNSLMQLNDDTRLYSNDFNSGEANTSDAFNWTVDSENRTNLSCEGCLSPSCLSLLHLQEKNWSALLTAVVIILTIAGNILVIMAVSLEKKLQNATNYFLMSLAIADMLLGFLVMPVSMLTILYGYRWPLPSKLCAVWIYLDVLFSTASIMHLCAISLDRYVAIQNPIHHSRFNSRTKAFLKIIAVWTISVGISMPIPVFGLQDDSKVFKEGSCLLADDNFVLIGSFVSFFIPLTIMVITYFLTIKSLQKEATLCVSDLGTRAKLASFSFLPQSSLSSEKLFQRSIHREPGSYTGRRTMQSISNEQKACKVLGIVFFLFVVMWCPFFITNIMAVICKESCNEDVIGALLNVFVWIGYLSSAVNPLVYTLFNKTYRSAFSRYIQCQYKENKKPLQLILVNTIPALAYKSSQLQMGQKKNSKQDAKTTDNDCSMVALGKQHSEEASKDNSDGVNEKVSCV
Below is a list of entries, each paired with its recorded EC50 value.
Respond numerically; units are nM and should not be typed.

Examples with their reported EC50 follow.
[
  {
    "compound": "CCCc1cc(OC)c(CC(C)N)cc1OC.Cl (centres unmarked)",
    "experimental-system": "h5-HT2A (Homo sapiens, UniProt P28223)",
    "unit": "nM",
    "EC50": 0.86
  },
  {
    "compound": "CCCCCc1cc(OC)c(CC(C)N)cc1OC (centres unmarked)",
    "experimental-system": "h5-HT2A (Homo sapiens, UniProt P28223)",
    "unit": "nM",
    "EC50": 2.4
  }
]

Fill in: EC50 of COc1cc(CC(C)N)c(OC)cc1C (centres unmarked) is ___ 3.7

# EC50 lookup, item CCc1cc(OC)c(CC(C)N)cc1OC (centres unmarked) 1.5

Query (compound): CCCCc1cc(OC)c(CC(C)N)cc1OC (centres unmarked) ; field requested: EC50 2
